# credit: PubChem BioAssay (Tox21)

test: qHTS assay for small molecule disruptors of the mitochondrial membrane potential (AID 720635); conditions: HepG2 mitochondrial membrane potential, Mito-MPS dye ratio; series mostly up to 83.2 µM; also: potency is read from the fitted curve at half-maximal effect
Results filed as inconclusive are left out. The source made the active and inactive calls. Calls follow the shape of the dose curve; as a rule, active = well fitted inhibition curve with a large enough effect in the signal ratio in the repeat runs; inconclusive = weak or mixed curves, or effect the other way; inactive = flat fitted curve, though single readings scatter; the % refers to the signal ratio. Starred links: 1 amine or outer side, 2 acyl side, 3 side chain; linkers in the order of their positions; H or OH if unused. Positions of bridges follow the written chain, without caps; N, C: chain ends. Non-standard residues stand in square brackets, D forms with d. Residues, ends and D or L forms follow the SMILES beside them. *: point of attachment. X5 = NC1=N[C@@H]([C@H](N[*:1])C(=O)[*:2])C[C@H](O)N1; ΔAla(Z-3-ureido) = NC(=O)N/C=C(\N)C(=O)O; β3hOrn = NCCC[C@H](N)CC(=O)*; Dap = NC[C@H](N)C(=O)O
Assay readout: Potency

Compound: CCCCC(O)c1ccccc1 (configuration not stated)
Recorded value: inactive
--
Compound: COc1cc(C)c(/C=C/C(C)=C/C=C/C(C)=C/C(=O)O)c(C)c1C
Recorded value: inactive
--
Compound: COc1cc([C@@H]2c3cc4c(cc3C(O[C@@H]3O[C@@H]5CO[C@@H](C)O[C@H]5[C@H](O)[C@H]3O)C3COC(=O)[C@@H]32)OCO4)cc(OC)c1OP(=O)(O)O (some centres not stated)
Recorded value: inactive
--
Compound: Clc1cc(Cl)c(OCC#CI)cc1Cl
Recorded value: 4.73 µM (active)
--
Compound: CC(C)CN(C[C@@H](O)[C@H](Cc1ccccc1)NC(=O)O[C@H]1CO[C@H]2OCC[C@H]21)S(=O)(=O)c1ccc(N)cc1
Recorded value: inactive
--
Compound: CN[C@@H]1[C@@H](O)[C@@H](O[C@@H]2[C@@H](O)[C@H](OC3OC(CN)=CCC3N)[C@@H](N)C[C@H]2N)OC[C@]1(C)O (some centres not stated)
Recorded value: inactive
--
Compound: CCC(=O)OCC(=O)[C@@]1(OC(=O)CC)[C@H](C)C[C@H]2[C@@H]3CCC4=CC(=O)C=C[C@]4(C)[C@@]3(F)[C@@H](O)C[C@@]21C
Recorded value: 29.8 µM (active)
--
Compound: N[C@@H](C(=O)N[C@@H]1C(=O)N2C(C(=O)O)=C(Cl)CC[C@H]12)c1ccccc1
Recorded value: inactive
--
Compound: Nc1nc(=O)n([C@@H]2CS[C@H](CO)O2)cc1F
Recorded value: inactive
--
Compound: CN1CCN2c3ncccc3Cc3ccccc3C2C1 (configuration not stated)
Recorded value: inactive
--
Compound: CCC(=O)Oc1ccc2c(c1)CC[C@@H]1[C@@H]2CC[C@]2(C)[C@@H](OC(=O)CC)CC[C@@H]12
Recorded value: inactive
--
Compound: C=Cc1c(C)c2cc3nc(cc4[nH]c(cc5nc(cc1[nH]2)C(C)=C5CCC(=O)OC)c(CCC(=O)O)c4C)[C@@]1(C)C3=CC=C(C(=O)OC)[C@H]1C(=O)OC
Recorded value: 1.88 µM (active)
--
Compound: Cc1ccc(C2(O)CCN(CCCC(=O)c3ccc(F)cc3)CC2)cc1
Recorded value: inactive
--
Compound: Cc1ccccc1CNc1ncnc2c1ncn2[C@@H]1O[C@H](CO)[C@@H](O)[C@H]1O
Recorded value: inactive
--
Compound: NCCC[C@H](N)CC(=O)N[C@H]1CNC(=O)[C@H]([C@H]2C[C@H](O)NC(N)=N2)NC(=O)/C(=C/NC(N)=O)NC(=O)[C@H](CO)NC(=O)[C@H](CO)NC1=O (β3hOrn-[Dap]SS[ΔAla(Z-3-ureido)][X5]; lactam 1-C)
Recorded value: inactive
--
Compound: Cc1c(N)nc(C(CC(N)=O)NCC(N)C(N)=O)nc1C(=O)NC(C(=O)NC(C)C(O)C(C)C(=O)NC(C(=O)NCCc1nc(-c2nc(C(=O)NCCCN[C@@H](C)c3ccccc3)cs2)cs1)C(C)O)C(O[C@@H]1O[C@@H](CO)[C@@H](O)[C@H](O)[C@@H]1O[C@H]1O[C@H](CO)[C@@H](O)[C@H](OC(N)=O)[C@@H]1O)c1cnc[nH]1 (some centres not stated)
Recorded value: inactive
--
Compound: CCCCCCCCCCCCCCCCCC(=O)OC[C@@H](O)[C@H]1OC[C@H](O)[C@H]1O
Recorded value: inactive
--
Compound: NCCC[C@H](N)C(=O)O
Recorded value: inactive
--
Compound: Nc1nc2[nH]cc(CCc3ccc(C(=O)N[C@@H](CCC(=O)O)C(=O)O)cc3)c2c(=O)[nH]1
Recorded value: inactive
--
Compound: CC(C)CCCC(C)NC(C)C (configuration not stated)
Recorded value: inactive
--
Compound: O=C(CCCN1CCC(n2c(=S)[nH]c3ccccc32)CC1)c1ccc(F)cc1
Recorded value: inactive
--
Compound: O=C(OC[C@H]1O[C@](O)(COC(=O)c2cccnc2)[C@@H](OC(=O)c2cccnc2)[C@@H]1OC(=O)c1cccnc1)c1cccnc1
Recorded value: inactive
--
Compound: CCCCCCCCCCCC(=O)OC[C@@H](O)C1OC[C@H](O)[C@H]1O (some centres not stated)
Recorded value: inactive
--
Compound: OCCO[C@@H]1[C@@H](O)[C@H](O)[C@@H](CO)O[C@@H]1O
Recorded value: inactive
--
Compound: CCC(=O)O[C@H]1CC[C@H]2[C@@H]3CCc4cc(O)ccc4[C@H]3CC[C@]12C
Recorded value: 11.9 µM (active)
--
Compound: CO[C@@H]1[C@@H](O[C@@H]2O[C@H](C)[C@@H](O[C@H]3C[C@@](C)(O)[C@@H](OC(=O)CC(C)C)[C@H](C)O3)[C@H](N(C)C)[C@H]2O)[C@@H](CC=O)C[C@@H](C)[C@@H](O)/C=C/C=C/C[C@@H](C)OC(=O)C[C@H]1O
Recorded value: inactive
--
Compound: CC1(C)S[C@@H]2[C@H](NC(=O)[C@H](N)c3ccccc3)C(=O)N2[C@H]1C(=O)OCOC(=O)[C@@H]1N2C(=O)C[C@H]2S(=O)(=O)C1(C)C
Recorded value: inactive
--
Compound: O=[N+]([O-])c1ccc(Oc2ccc(N=C=S)cc2)cc1
Recorded value: 5.96 µM (active)
--
Compound: [O]=[Bi][O][Bi]=[O]
Recorded value: inactive
--
Compound: c1ccc2cc(C3=NCCN3)ccc2c1
Recorded value: inactive
--
Compound: CCCC(=O)O[C@]1(C(=O)COC(=O)CC)[C@@H](C)C[C@H]2[C@@H]3CCC4=CC(=O)C=C[C@]4(C)[C@@]3(F)[C@@H](O)C[C@@]21C
Recorded value: 26.6 µM (active)
--
Compound: COC(=O)[C@@H](N)CS
Recorded value: inactive
